Known pEC50 of a selection of molecules
- measurementTarget: Melanocortin receptor 4 (Homo sapiens, UniProt P32245, A219V)
- protocolNotes: Agonist activity at human melanocortin-4 receptor A219V mutant expressed in HEK293 cells co-transfected with CRE/beta-galactosidase reporter gene assessed as stimulatory response after 6 hrs
pEC50: −log10 of the molar value.
outcomeMeasure: pEC50

• CC(=O)N[C@@H](CCCNC(=N)N)C(=O)N[C@H](Cc1ccc(Cl)cc1)C(=O)N1Cc2ccccc2C[C@H]1C(=O)N[C@H](Cc1ccc([N+](=O)[O-])cc1)C(N)=O = 8.38
• CC(=O)N[C@@H](Cc1c[nH]cn1)C(=O)N[C@H](Cc1ccc(I)cc1)C(=O)N1Cc2ccccc2C[C@H]1C(=O)N[C@H](Cc1ccc([N+](=O)[O-])cc1)C(N)=O = 8.35
• CC(=O)N[C@@H](Cc1c[nH]cn1)C(=O)N[C@H](Cc1ccc(Cl)cc1)C(=O)N1Cc2ccccc2C[C@H]1C(=O)N[C@H](Cc1ccc([N+](=O)[O-])cc1)C(N)=O = 8.55
• CC(=O)N[C@@H](CCCNC(=N)N)C(=O)N[C@H](Cc1ccc(I)cc1)C(=O)N1Cc2ccccc2C[C@H]1C(=O)N[C@H](Cc1ccc([N+](=O)[O-])cc1)C(N)=O = 8.21

The measurements presented in this section are drawn from ChEMBL document CHEMBL3286334.
